From: patent US20260262643A1

Field: Plant response rating, Ryegrass, Italian. Provide a value for each of the molecules that follow.
Tested on: ryegrass, Italian
ASSAY NOTES: Test C postemergence
Assay type: in vivo, Lolium multiflorum
COND: Postemergence, 125 g ai/ha; 0 to 100 scale (0 no effect, 100 complete control), 10 days
One number for each entry.

// known answers, use as guide
| MOLECULE | Plant response rating, Ryegrass, Italian |
| --- | --- |
| Cc1ncn(-c2ccc(F)c(C(=O)N3C[C@H](C)Oc4c(C)cccc43)c2)n1 | 80 |
| Cc1ccc(-n2cnc(C(C)C)n2)cc1C(=O)N1CC(C(F)(F)F)Oc2c(Cl)cccc21 (stereo not shown) | 20 |
| Cc1ncc(-c2cccc(C(=O)N3C[C@H](C)Oc4c(Cl)cccc43)c2)o1 | 10 |

// below: Plant response rating, Ryegrass, Italian requested for another molecule
Quote Plant response rating, Ryegrass, Italian reported for `CCOc1ncn(-c2cccc(C(=O)N3C[C@H](C)Oc4c(Cl)cccc43)c2)n1` please.
10
